A collection of compounds and their measured GI50
- Test system: DU-145
- measurement notes: NCI tumour cell line growth inhibition, 48 h
Activity calls are given as the source filed them. Rule as the data show it: active = GI50 up to about 1.1 µM and inactive = higher.
endpoint label: GI50

> print(dat)
                                chem.smiles  target.system  endpoint.label        readout.value
1   Clc1ccc(-c2nnc(-c3cccc4ccccc34)o2)cc1Cl         DU-145            GI50  > 100 µM (inactive)
2  COCn1cnc2c(=O)n(-c3ccc(OC)cc3)c(=S)n(-c3ccc(OC)cc3)c21         DU-145            GI50  > 100 µM (inactive)
3                 CC(C)(NO)/C(=N\O)c1ccccc1         DU-145            GI50   > 10 µM (inactive)

* * *

- Tested on: HCT-116
- measurement notes: NCI tumour cell line growth inhibition, 48 h
Active and inactive are the calls of the source. Rule as the data show it: active = GI50 up to about 1.1 µM and inactive = higher.
Outcomes: 1 for active, 0 for inactive

compound	target system	group label
COC(=O)Cc1c(-c2c(CC(=O)OC)c3ccccc3n2C2OC(COC(C)=O)C(OC(C)=O)C(OC(C)=O)C2OC(C)=O)[nH]c2ccccc12 (configuration not stated)	HCT-116	0
CC(=O)Nc1ccc(S(=O)(=O)c2nnc(NC(C)=O)s2)cc1	HCT-116	0
COc1cc(Oc2c(C)c(Cl)c(OC)c(Cl)c2OC)c2c(c1Cl)COC2=O	HCT-116	0
CCN(CC)C1Oc2cc3c(cc2C(c2cc(OC)c(OC)c(OC)c2)C1C)OCO3 (configuration not stated)	HCT-116	1
CC[C@]1(O)C[C@H]2CN(CCc3c([nH]c4ccccc34)[C@@](C(=O)OC)(c3cc4c(cc3OC)N(C)[C@H]3[C@@](O)(C(=O)OC)[C@H](OC(C)=O)[C@]5(CC)C=CCN6CC[C@]43[C@@H]65)C2)C1	HCT-116	1
CC(CCCOC(c1ccccc1)(c1ccccc1)c1ccccc1)OC(=O)Nc1cc([N+](=O)[O-])cc([N+](=O)[O-])c1 (configuration not stated)	HCT-116	0
COc1ccc(C(=O)Cc2ccc(Br)cc2)cc1OC	HCT-116	0

* * *

- System: HCC 2998
- measurement notes: NCI tumour cell line growth inhibition, 48 h
The source made the active and inactive calls. Cut-off read from the data, not from the text of the source: active = GI50 up to about 1.1 µM and inactive = higher.

molecule	GI50
Cc1cc(C)nc(NS(=O)(=O)c2ccc(NC(=O)COC(=O)c3cccc4c(=O)c5ccccc5[nH]c34)cc2)n1	21.1 µM (inactive)
Nc1nc(-c2ccccc2)c(Cl)c(-c2cc(Cl)ccc2O)n1	> 81.1 µM (inactive)
CCOC(=O)Cc1nc2cc(F)c(F)cc2[nH]c1=O	> 100 µM (inactive)
NC(=O)c1ncn(C2C=CC(CP(=O)(O)O)C2)c1N (centres undefined)	> 100 µM (inactive)
COc1cccc(OC)c1C1ON=C(c2ccccc2)N1C12CC3CC(CC(C3)C1)C2 (centres undefined)	> 100 µM (inactive)
N#CC1=C(c2ccccc2)NNC(c2ccc(Cl)cc2)CC1=O (centres undefined)	56.6 µM (inactive)
CCCCCCCCCCCCOc1ccc(/C=C/C2=[N+](CCCl)CCO2)cc1	39.1 µM (inactive)
C#CCOCn1cnc2c(Sc3c([N+](=O)[O-])ncn3C)ncnc21	> 100 µM (inactive)
CCc1nc(N)nc(N)c1-c1ccc(N(C)Cc2ccccc2)c([N+](=O)[O-])c1	0.345 µM (active)
CC1C(=O)OC2CC[N+]3([O-])CC=C(COC(=O)C(C)(O)C1(C)O)C23 (centres undefined)	> 100 µM (inactive)
CCC1(O)CC(OC2CC(N(C)C)C(OC3CC(O)C(OC4CCC(=O)C(C)O4)C(C)O3)C(C)O2)c2c(cc3c(c2O)C(=O)c2c(O)ccc(O)c2C3=O)C1C(=O)OC (centres undefined)	< 0.01 µM (active)
CC(=O)c1c2c(cc3c1CC1(C3)Cc3cc4c(c(C(=O)O)c3C1)CCC4)CCC2 (centres undefined)	37.8 µM (inactive)
Cc1cccc(C)c1/N=N/c1ccc(O)c(CN(C)C)c1	19.9 µM (inactive)
CC(C)(C)OC(=O)NCC(C#N)CNC(=O)OC(C)(C)C	> 100 µM (inactive)
O=C1N[C@@H]2C(=C[C@H](O)[C@@H](O)[C@H]2O)c2cc3c(c(O)c21)OCO3	0.045 µM (active)
CC(=O)OC1C/C(C)=C/[C@H](O)CC(C)/C=C/[C@@]2(C)CCC(C(C)(C)O)C12 (some centres undefined)	> 100 µM (inactive)
O=C1C=CC(=O)c2c1ccc1c3ccccc3n(CCCCCn3c4ccccc4c4ccc5c(c43)C(=O)C=CC5=O)c21	33 µM (inactive)
CCN(CC(=O)O)CC(=O)O	> 100 µM (inactive)
N#CC1=C2SCCN2C(=O)C(C#N)C12CCCCC2 (centres undefined)	> 100 µM (inactive)
CC(C)(NO)/C(=N\O)c1ccccc1	> 10 µM (inactive)
O=C(c1ccc(Cl)cc1)N(Cc1cccnc1)C(=S)N(Cc1cccnc1)C(=O)c1ccc(Cl)cc1	25.9 µM (inactive)
CCOC(=O)C(Cc1ccc2ccccc2c1)(Cc1ccc2ccccc2c1)C(C)=O	3.02 µM (inactive)
O=C1CC(c2ccccc2Cl)C2(C(=O)NC(=O)NC2=O)C(c2ccccc2Cl)C1 (centres undefined)	49.2 µM (inactive)
O=c1[nH]c(=O)n(C2OC(CO)C(O)C2O)cc1OCCCc1ccccc1 (centres undefined)	> 100 µM (inactive)

* * *

- System: TK-10
- measurement notes: NCI tumour cell line growth inhibition, 48 h
Activity calls are given as the source filed them. Cut-off read from the data, not from the text of the source: active = GI50 up to about 1.1 µM and inactive = higher.
endpoint label: GI50

compound	endpoint label	readout value
COc1cc2ccc3c4cc(OC)c(OCc5ccccc5)cc4cnc3c2cc1OC	GI50	> 100 µM (inactive)
COc1ccc(OCC(=N/NC(=O)c2ccncc2)/N=C/c2ccncc2)cc1	GI50	> 100 µM (inactive)
CN(C)CCN1C(=O)CC[C@@]2(C)C1=CC[C@@H]1[C@@H]2CC[C@@]2(C)[C@H]1CC[C@]2(C)O	GI50	> 100 µM (inactive)
N#Cc1ccc(Nc2nc3[nH]cnc3c(=O)[nH]2)cc1	GI50	> 100 µM (inactive)
O=S1(=O)C[C@@H](O)[C@H](O)CS1	GI50	> 100 µM (inactive)
Nc1ccc(-c2cc(C(=O)Nc3nccs3)nc(S)n2)cc1	GI50	> 100 µM (inactive)
N#CC1=C(c2ccccc2)NNC(c2ccc(Cl)cc2)CC1=O (stereo not drawn)	GI50	> 100 µM (inactive)
O=C1C(=C(C(F)(F)Cl)C(F)(F)Cl)C2CCC1C2 (stereo not drawn)	GI50	1.77 µM (inactive)
CCCC1C(C#N)(C#N)C(C#N)=C(N)C1(C)C(C)=O (stereo not drawn)	GI50	> 100 µM (inactive)
O=[PH](O)c1cccs1	GI50	> 100 µM (inactive)
O=P(Oc1ccc(Cl)cc1)(Oc1ccc(Cl)cc1)N1CC1	GI50	> 10 µM (inactive)
COC(=O)[C@H](Cc1ccccc1)NC(=O)NCCN(CCNC(=O)N[C@@H](Cc1ccccc1)C(=O)OC)C(=O)N[C@@H](Cc1ccccc1)C(=O)OC	GI50	20.1 µM (inactive)
C[n+]1c2ccccc2c(C(=O)Nc2ccc(S(=O)(=O)Nc3ncccn3)cc2)c2ccccc21	GI50	> 100 µM (inactive)
O=C1CCCCCCCCCCC1CN(Cc1ccccc1)Cc1ccccc1 (stereo not drawn)	GI50	> 100 µM (inactive)
CO/N=C1/c2sccc2[C@H](NC(=O)C(F)(F)F)[C@@H]1O	GI50	> 100 µM (inactive)
CC1=C(C(=O)c2ccccc2)C23C(=O)N(c4ccccc4)C(=O)C2=C(O)C=CC3(O)N1 (stereo not drawn)	GI50	67.1 µM (inactive)
CC(=O)CC(=O)ON(C)C(=O)Cc1ccccc1	GI50	> 100 µM (inactive)
Cc1cc(C)nc(NS(=O)(=O)c2ccc(NC(=O)COC(=O)c3cccc4c(=O)c5ccccc5[nH]c34)cc2)n1	GI50	76.4 µM (inactive)
Cc1ccc2c(=O)c(-c3nnsn3)c[nH]c2n1	GI50	> 100 µM (inactive)
CCNc1nnc(CSc2nc(-c3ccccc3)c(-c3ccccc3)[nH]2)s1	GI50	18.5 µM (inactive)
ClC(Cl)(Cl)C(N1CCN(c2ccccc2)CC1)N1CCN(c2ccccc2)CC1	GI50	> 100 µM (inactive)
Nc1ccn(C2CCC(CO)O2)c(=O)n1 (stereo not drawn)	GI50	> 1000 µM (inactive)
CCCCCCCCOc1ccc(/C=C/C2=[N+](CCO)CCO2)cc1	GI50	3.36 µM (inactive)
NS(=O)(=O)c1ccc(NNc2c3ccccc3nc3ccccc23)cc1	GI50	18.8 µM (inactive)
O=C(O)Cn1cc([N+](=O)[O-])c(=O)c2ccccc21	GI50	> 100 µM (inactive)
C/C(CC(=O)Nc1cccc([N+](=O)[O-])c1)=N\NC(=O)CC#N	GI50	> 100 µM (inactive)
CN(C)CCNc1nc2c(no[n+]2[O-])c2ccccc12.[O-][Cl+3]([O-])([O-])O	GI50	24.9 µM (inactive)
CCC1(O)CC(OC2CC(N(C)C)C(OC3CC(O)C(OC4CCC(=O)C(C)O4)C(C)O3)C(C)O2)c2c(cc3c(c2O)C(=O)c2c(O)ccc(O)c2C3=O)C1C(=O)OC (stereo not drawn)	GI50	< 0.01 µM (active)
CC(=O)Nc1ccc(S(=O)(=O)Nc2nc(-c3ccc(Cl)cc3)cc(N3N=C(c4ccc(Br)cc4)CC3c3ccccc3)n2)cc1 (stereo not drawn)	GI50	14 µM (inactive)
Cc1ncc(CO)c(/C=N/CCCCCC/N=C/c2c(CO)cnc(C)c2[O-])c1[O-].[Mg+2]	GI50	> 100 µM (inactive)
COCn1cnc2c(=O)n(-c3ccc(OC)cc3)c(=S)n(-c3ccc(OC)cc3)c21	GI50	> 100 µM (inactive)
CCc1nc(N)nc(N)c1-c1ccc(N(C)Cc2ccccc2)c([N+](=O)[O-])c1	GI50	7.13 µM (inactive)
COc1cc(Oc2nc3cc(F)c(F)cc3nc2-c2ccccc2)cc(OC)c1OC	GI50	68.2 µM (inactive)
